# system: HLA-B*15:01
# procedure.summary: IEDB peptide-MHC binding, purified MHC/competitive/fluorescence; filed as Kd, often an IC50 or EC50 that approximates it; bounds were set here for any values at or beyond the usual limits of such assays
# stated.conditions: source organism: Campylobacter jejuni subsp. jejuni NCTC 11168 = ATCC 700819
observed.property: Kd

Req: Quick check: Kd of `AELIDSFTW` ?
Resp: ≥ 20 µM

====

# system: HLA-A*02:01
# procedure.summary: IEDB peptide-MHC binding, purified MHC/direct/fluorescence; filed as Kd, often an IC50 or EC50 that approximates it; bounds were set here for any values at or beyond the usual limits of such assays
# stated.conditions: source organism: Yellow fever virus
observed.property: Kd

Req: Bench note: what Kd did `FHERGYVKL` show?
Resp: ≥ 20 µM

src = the Immune Epitope Database (IEDB)
